Biological target: h-P2X7R (Homo sapiens, UniProt Q99572)
Sequence (Q99572 1-595): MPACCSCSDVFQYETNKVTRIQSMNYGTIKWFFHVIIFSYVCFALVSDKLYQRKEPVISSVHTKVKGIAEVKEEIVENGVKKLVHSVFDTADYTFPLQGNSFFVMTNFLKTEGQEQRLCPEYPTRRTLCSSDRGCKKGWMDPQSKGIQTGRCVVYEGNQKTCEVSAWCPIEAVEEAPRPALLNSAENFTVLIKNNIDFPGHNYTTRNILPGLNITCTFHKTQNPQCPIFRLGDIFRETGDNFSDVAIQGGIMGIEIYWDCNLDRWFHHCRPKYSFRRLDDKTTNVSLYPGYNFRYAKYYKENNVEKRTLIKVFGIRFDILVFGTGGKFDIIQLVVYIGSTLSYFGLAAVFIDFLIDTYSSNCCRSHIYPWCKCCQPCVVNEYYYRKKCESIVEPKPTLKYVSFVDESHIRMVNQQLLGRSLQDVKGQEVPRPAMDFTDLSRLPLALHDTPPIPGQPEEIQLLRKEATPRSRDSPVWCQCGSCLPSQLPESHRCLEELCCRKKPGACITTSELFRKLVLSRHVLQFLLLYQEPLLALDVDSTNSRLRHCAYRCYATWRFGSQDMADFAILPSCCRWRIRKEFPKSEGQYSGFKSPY
Assay: Ca2+ influx assay
Format: cell-based
Conditions: 1321-N1, read-out: h-P2X7 % inhibition
property_name: inhibition at 50 µM (%)

INSERT INTO measurements (structure_smiles_string, tested_system, numeric_result) VALUES
  ('CC(=NNC(=O)c1ccccc1NS(C)(=O)=O)c1ccc(Br)cc1', 'h-P2X7R (Homo sapiens, UniProt Q99572)', 34),
  ('CC(=NNC(=O)c1ccccc1NS(C)(=O)=O)c1cccs1', 'h-P2X7R (Homo sapiens, UniProt Q99572)', 45),
  ('CC(=NNC(=O)c1ccccc1NS(C)(=O)=O)c1sccc1C', 'h-P2X7R (Homo sapiens, UniProt Q99572)', 47),
  ('CC(=NNC(=O)c1ccccc1NS(C)(=O)=O)c1ccc(Cl)cc1', 'h-P2X7R (Homo sapiens, UniProt Q99572)', 48);
